Answer each item with its documented normalized growth.
# protocol-text: chemical genetic growth profiling, strain panel (AID 1159580);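 further: tested at 20 µM; growth read once vehicle control cultures reached saturation at 30 °C; 1 = growth at the plate median or of vehicle wells; lower values mean less growth of the strain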
# assay-setup: S. cerevisiae deletion strains, growth OD, locus YPL204W, strain HRR25, stronger effect = lower value
The campaign covered roughly 5,500 compounds. About 2,000 (36%) were called active. Roughly 18% stayed inconclusive and do not appear here. This is one part of the list.
Answers are plain numbers.

NC(N)=Nc1nc(-c2cc(Cl)sc2Cl)cs1    0.921
NCCCN=c1ccc2c3c1c(O)c1c(O)ccc(=O)c1c3[nH]n2CCNCCO    0.951
Cn1cncc1S(=O)(=O)/C(C#N)=C/c1ccccc1Sc1ccc(Cl)cc1    0.699
O=C(Nc1c(Br)c(C2CC2)nn1-c1ccccc1)C(Cl)(Cl)Cl    0.735
C/C(=N/NC(N)=S)c1ccccn1    0.85

// switching to the query molecule
(Q) Looking for the measured normalized growth of Cc1ccccc1C(=O)N1CCc2c([nH]c3ccccc23)C1C(F)(F)F (stereo unspecified) , can you help?
(A) 0.945

* * *

# protocol-text: chemical genetic growth profiling, strain panel (AID 1159580);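 further: tested at 20 µM; growth read once vehicle control cultures reached saturation at 30 °C; 1 = growth at the plate median or of vehicle wells; lower values mean less growth of the strain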
# assay-setup: S. cerevisiae deletion strains, growth OD, locus YDR318W, strain mcm21, stronger effect = lower value
Out of some 5,500 compounds screened, about 2,000 (36%) were called active. Inconclusive results (about 18%) are left out. The list shows a part of the results.
Entries are sorted into classes by normalized growth as follows: 0: < 0.9; 1: ≥ 0.9 and < 1; 2: ≥ 1

CC(C)=CCc1c(O)cc2oc(C)cc(=O)c2c1O    1
O=C1CC(c2ccc(O)cc2)Oc2ccccc21 (stereo not drawn)    0
CN1C2CC3C[C@H]1C(O3)C2O (stereo partly drawn)    2
COc1cc(O)c2c(=O)cc(C)oc2c1CC=C(C)C    0
CCN(CC)C(=S)SSC(=S)N(CC)CC    0
O=[N+]([O-])O[C@H]1CO[C@H]2[C@@H]1OC[C@H]2O[N+](=O)[O-]    2

(Q) # classify by normalized growth band: "Cc1cc(=O)c2c(O)c(C)c(O)cc2o1"
(A) 1

(Q) What about this molecule? "COc1cc(O)c(C(=O)c2ccccc2)cc1O"
(A) 1

(Q) What about this molecule? "NC(=O)N1c2ccccc2CC(=O)c2ccccc21"
(A) 1

(Q) What about this molecule? "COc1c(O)cc2oc3cc(O)c(CC=C(C)C)c(O)c3c(=O)c2c1CC=C(C)C"
(A) 0

(Q) What about this molecule? "S=C=NCc1ccccc1"
(A) 0

(Q) What about this molecule? "NC(=O)c1ncn([C@@H]2O[C@H](CO)[C@@H](O)[C@H]2O)c1O"
(A) 2

(Q) What about this molecule? "C/C=C(/C(=C/C)c1ccc(O)cc1)c1ccc(O)cc1"
(A) 0

* * *

# protocol-text: chemical genetic growth profiling, strain panel (AID 1159580);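 further: tested at 20 µM; growth read once vehicle control cultures reached saturation at 30 °C; 1 = growth at the plate median or of vehicle wells; lower values mean less growth of the strain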
# assay-setup: S. cerevisiae deletion strains, growth OD, locus YDR392W, strain spt3
Hit rate of the full screen: of about 5,500 compounds, about 2,000 (36%) were called active. Inconclusive results (about 18%) are left out. Rule as the data show it: active = normalized growth mostly below about 0.91 (no sharp cut-off); inconclusive = no clear call, values can overlap the other calls; inactive = mostly above about 0.92. Some of the results follow.
Returns: one label drawn from active, inactive

Use the examples below as a reference point.
CCCCOc1ccc(OCCCN2CCOCC2)cc1    inactive
NC(N)=NOCC[C@H](N)C(=O)O    inactive
COC(=O)C1=COC(OC2OC(CO)C(O)C(O)C2O)C2C(C)CC(=O)C12O (stereo not given)    inactive
COc1ccc(C(=O)c2ccccc2O)c(O)c1    active
CNc1ccccc1C(=O)N1CCc2c([nH]c3ccccc23)C1=O    inactive
COc1ccc(-c2cc(=O)c3c(O)cc(OC)c(OC)c3o2)c(OC)c1    inactive
O=c1ccc2cc(O)c(O)cc2o1    inactive
COc1ccc(-c2coc3c(O)c(OC)ccc3c2=O)cc1    active

(Q) Please let me know the test result on file for "C1CCc2nnnn2CC1" .
(A) inactive

(Q) What about this compound? "NC(N)=Nc1nc(CSCCC(N)=NS(N)(=O)=O)cs1"
(A) inactive

(Q) What about this compound? CCC(C(=O)O)c1ccccc1 (stereo not given)
(A) inactive

(Q) What about this compound? "CCCCOc1ccc(C(=O)CCN2CCCCC2)cc1"
(A) active

Ref: PubChem BioAssay AID1159580
